I'd be grateful if you could share measured half-life for these entries.
experiment: Half-life in Beagle dog at 0.1 mg/kg, iv or 0.3 mg/kg, po by LC-MS/MS analysis; format: ADME, organism-based, Canis lupus familiaris; settings: in vivo
Only the number, expressed in h, is required.

// half-life value for CC(C)Oc1cc(NC(=O)N2CCCc3cc(CN4CCCC4=O)c(C=O)nc32)ncc1C#N : 8.1

Measured half-life of COCCOc1cc(NC(=O)N2CCCc3cc(CN4CCN(C)CC4=O)c(C=O)nc32)ncc1C#N : 6.5

====

assay: Half life in dog intestinal S9 fraction in presence of NADPH; type: ADME, subcellular, Canis lupus familiaris, Intestine; conditions: time 120 min
endpoint: half-life at 1 µM

The recorded half-life at 1 µM for COCCOc1cc(NC(=O)N2CCCc3cc(CN4CCN(C)CC4=O)c(C=O)nc32)ncc1C#N is > 2 h
